Catalogue of PBM binding z-score readings, one per entry.
System: THRa homodimer (NR concentration 90 nM)
ASSAY_METHOD_TEXT: PBM binding z-score (relative to random genomic background probes); higher = stronger binding; sequences stand for … in GC…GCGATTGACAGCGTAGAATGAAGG
Form field (numeric): enter value without unit.

                       sequence_chain  value_reported
0  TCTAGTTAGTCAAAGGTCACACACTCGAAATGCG             1.9
1  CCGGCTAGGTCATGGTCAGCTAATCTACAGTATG            1.57
2  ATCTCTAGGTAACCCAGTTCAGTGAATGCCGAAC           0.872

Fill in: PBM binding z-score of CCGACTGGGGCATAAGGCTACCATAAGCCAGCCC is ___ -0.406

Fill in: PBM binding z-score of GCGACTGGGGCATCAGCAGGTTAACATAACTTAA is ___ -0.291

Fill in: PBM binding z-score of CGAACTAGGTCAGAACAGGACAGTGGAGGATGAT is ___ 0.46

Fill in: PBM binding z-score of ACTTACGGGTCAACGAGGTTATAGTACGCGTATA is ___ 1.34

Fill in: PBM binding z-score of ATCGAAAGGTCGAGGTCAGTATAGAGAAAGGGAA is ___ 1.93

Fill in: PBM binding z-score of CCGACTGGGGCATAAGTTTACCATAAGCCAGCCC is ___ -0.433

Fill in: PBM binding z-score of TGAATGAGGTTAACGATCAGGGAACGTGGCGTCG is ___ 0.403

Fill in: PBM binding z-score of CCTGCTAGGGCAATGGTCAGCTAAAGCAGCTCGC is ___ -0.86

Fill in: PBM binding z-score of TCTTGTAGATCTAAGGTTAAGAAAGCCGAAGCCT is ___ 1.26

Fill in: PBM binding z-score of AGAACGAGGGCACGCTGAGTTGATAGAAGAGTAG is ___ -0.0196

Fill in: PBM binding z-score of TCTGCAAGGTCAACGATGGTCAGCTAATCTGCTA is ___ 2.36

Fill in: PBM binding z-score of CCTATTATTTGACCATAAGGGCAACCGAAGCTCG is ___ 2.31

Fill in: PBM binding z-score of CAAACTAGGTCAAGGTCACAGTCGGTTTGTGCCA is ___ 4.75

Fill in: PBM binding z-score of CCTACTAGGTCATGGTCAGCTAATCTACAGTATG is ___ 1.53

Fill in: PBM binding z-score of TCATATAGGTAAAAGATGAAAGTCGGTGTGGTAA is ___ 0.103

Fill in: PBM binding z-score of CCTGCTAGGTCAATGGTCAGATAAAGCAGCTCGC is ___ 0.626

Fill in: PBM binding z-score of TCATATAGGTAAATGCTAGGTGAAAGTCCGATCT is ___ 0.441

Fill in: PBM binding z-score of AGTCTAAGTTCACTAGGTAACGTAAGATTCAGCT is ___ 0.878

Fill in: PBM binding z-score of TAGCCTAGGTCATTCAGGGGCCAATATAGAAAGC is ___ 0.878

Fill in: PBM binding z-score of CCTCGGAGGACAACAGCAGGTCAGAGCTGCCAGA is ___ 0.482

Fill in: PBM binding z-score of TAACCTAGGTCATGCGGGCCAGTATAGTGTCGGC is ___ 1.23

Fill in: PBM binding z-score of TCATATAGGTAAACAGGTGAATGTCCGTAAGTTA is ___ 0.511

Fill in: PBM binding z-score of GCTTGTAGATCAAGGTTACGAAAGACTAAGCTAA is ___ 0.263
